minimum viability across doses overview
- System: CAKI-1
- Assay: minimum viability across doses, drug alone, relative to DMSO (fraction); higher = less growth inhibition
- Test Settings: treatment: drug alone; 5 days
Form rule: numeric answer, no unit written next to it.

Below, each entry is followed by its recorded minimum viability across doses result.
• COc1cc(Nc2c(C#N)cnc3cc(OCCCN4CCN(C)CC4)c(OC)cc23)c(Cl)cc1Cl [Bosutinib (SKI-606)] = 0.0478
• CNC(=O)c1c(F)cccc1Nc1nc(Nc2cc3c(cc2OC)CCN3C(=O)CN(C)C)nc2[nH]ccc12 = 0.00594

State its minimum viability across doses on CAKI-1: COC(=O)c1ccc2c(c1)NC(=O)/C2=C(\Nc1ccc(N(C)C(=O)CN2CCN(C)CC2)cc1)c1ccccc1 [BIBF1120 (Vargatef)]
0.251

// lookup minimum viability across doses | system=CAKI-1 | key= COc1cc(CCc2cc(NC(=O)c3ccc(N4C[C@@H](C)N[C@@H](C)C4)cc3)n[nH]2)cc(OC)c1 [AZD4547]
0.222

Lab request: please report minimum viability across doses under test system CAKI-1 for COc1cc2c(Oc3ccc4[nH]c(C)cc4c3F)ncnc2cc1OCCCN1CCCC1 [Cediranib (AZD2171)]
0.0807
